# System: LOC_OS04G57630-cb004
# EXPERIMENT: thermal shift delta Tm vs DMSO control; higher = stronger stabilization (binding);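 note: purified Escherichia coli-expressed rice kinase domain construct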
# STATED_CONDITIONS: 12.5 µM; protein concentration 2 µM
READOUT_NAME: thermal shift delta Tm (°C)
Give just the numeric value; °C need not be written.

CNC(=O)c1ccc(C)c(-n2c(C)cc(OCc3ccc(F)cc3F)c(Br)c2=O)c1    0.7
COc1nccc(-c2c(-c3ccc(F)cc3)ncn2C2CCC(O)CC2)n1 (stereo not drawn)    0.18
N#CC(=C(/N)Sc1ccccc1N)/C(C#N)=C(\N)Sc1ccccc1N    -0.53
CN1CCN(c2ccc(-c3ccncc3-c3cc(F)c(O)c(F)c3)cc2)CC1    0.24
COc1cc2ncc(-c3ccccc3)nc2cc1OC [Tyrphostin AG 1296]    0.05

Q: Form field: reported thermal shift delta Tm of OCCn1cc(-c2cnc3nnn(Cc4ccc5ncccc5c4)c3n2)cn1
A: -0.21

Q: Form field: reported thermal shift delta Tm of CC(C)c1ccc2oc3nc(N)c(C(=O)O)cc3c(=O)c2c1 [Amlexanox]
A: 0.42

Q: Form field: reported thermal shift delta Tm of O=c1c(O)c(-c2ccc(O)c(O)c2)oc2cc(O)cc(O)c12 [Quercetin]
A: 0.22

----------
# Test system: LOC_OS03G50450-cb001
# EXPERIMENT: thermal shift delta Tm vs DMSO control; higher = stronger stabilization (binding)
# STATED_CONDITIONS: 12.5 µM; protein concentration 2 µM
Structures can show the parent of a compound that is named as a salt.
Outcome: true for thermal shift delta Tm of at least 0.3 °C; false for anything lower.

Example cases with answers are listed next.
CN1CC(O)C2=C/C(=N/NC(N)=O)C(=O)C=C21 (stereo not drawn)    true
CCn1nc(C2CCN(C(=O)CCO)CC2)nc1-c1cnc(N)c(-c2nnc(C(C)(C)C)o2)n1    false
Cc1c(CN2CCN(C(=O)[C@H](C)O)CC2)sc2c(N3CCOCC3)nc(-c3cnc(N)nc3)nc12    true
Cc1ccc(NC(=O)c2cccc(N(C)C)c2)cc1NC(=O)c1ccc(O)cc1    false
Cc1ccc(NC(=O)Nc2cc(C(F)(F)F)ccc2F)cc1Nc1ccc2c(c1)NC(=O)/C2=C\c1ccc[nH]1    true

Q: I'd appreciate it if you could say whether C[C@H]1CNC(=O)c2cnn3ccc(nc23)N[C@H](C)c2cc(F)ccc2O1 has thermal shift delta Tm at least equal to 0.3 °C.
A: true

Q: I'd appreciate it if you could say whether Cc1ccc(NC(=O)c2ccc(CN3CCN(C)CC3)cc2)cc1Nc1nccc(-c2cccnc2)n1 [Imatinib Mesylate (STI571)] has thermal shift delta Tm at least equal to 0.3 °C.
A: false

Q: I'd appreciate it if you could say whether Cc1c(NC(=O)c2ccc(C(C)(C)C)cc2)cccc1-c1cn(C)c(=O)c(Nc2ccc(C(=O)N3CCOCC3)cc2)n1 has thermal shift delta Tm at least equal to 0.3 °C.
A: true

Q: I'd appreciate it if you could say whether CC(C)c1cnn2c(NCc3ccccc3)cc(NCCCCCCN)nc12 has thermal shift delta Tm at least equal to 0.3 °C.
A: true

Q: I'd appreciate it if you could say whether FC(F)c1nc2ccccc2n1-c1nc(N2CCOCC2)nc(N2CCOCC2)n1 has thermal shift delta Tm at least equal to 0.3 °C.
A: true

Q: I'd appreciate it if you could say whether Cn1cc(-c2cnn3c(N)c(Br)c([C@@H]4CCCNC4)nc23)cn1 has thermal shift delta Tm at least equal to 0.3 °C.
A: true

Q: I'd appreciate it if you could say whether CCN(CC)CCNC(=O)c1c(C)[nH]c(/C=C2\C(=O)Nc3ccc(F)cc32)c1C [Sunitinib] has thermal shift delta Tm at least equal to 0.3 °C.
A: true

Q: I'd appreciate it if you could say whether CC(=O)O/N=C1/C(c2c(O)[nH]c3cc(Br)ccc23)=Nc2ccccc21 has thermal shift delta Tm at least equal to 0.3 °C.
A: false

Q: I'd appreciate it if you could say whether Cc1cccc(Nc2nc(NC3CCCCC3N)ncc2C(N)=O)c1 (stereo not drawn) has thermal shift delta Tm at least equal to 0.3 °C.
A: true

Q: I'd appreciate it if you could say whether CCCCCCCCCC(=O)CC(O)S(=O)(=O)O (stereo not drawn) [Sodium Houttuyfonate] has thermal shift delta Tm at least equal to 0.3 °C.
A: true

----------
# Tested on: LOC_OS04G41100-cb001
# Sequence (as listed by the source): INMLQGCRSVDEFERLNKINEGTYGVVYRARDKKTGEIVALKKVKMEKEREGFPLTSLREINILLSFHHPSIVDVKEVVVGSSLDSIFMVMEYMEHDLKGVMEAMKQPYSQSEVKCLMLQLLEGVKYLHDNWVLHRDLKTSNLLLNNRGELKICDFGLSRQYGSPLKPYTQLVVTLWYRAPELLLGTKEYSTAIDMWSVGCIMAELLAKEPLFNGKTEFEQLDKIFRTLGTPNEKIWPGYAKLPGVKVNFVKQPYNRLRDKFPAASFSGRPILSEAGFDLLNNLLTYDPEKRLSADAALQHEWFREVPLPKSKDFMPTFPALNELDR
# EXPERIMENT: thermal shift delta Tm vs DMSO control; higher = stronger stabilization (binding)
# STATED_CONDITIONS: 12.5 µM; protein concentration 2 µM
We'd kindly ask you to apply these thermal shift delta Tm classes: low band (below 0.4 °C), middle band (0.4 °C to below 0.5 °C), high band (0.5 °C or more)

Oc1c(F)cc(-c2cnccc2-c2ccc(N3CCOCC3)cc2)cc1F    middle band
CN1CCN(CCOc2cc(OC3CCOCC3)c3c(Nc4c(Cl)ccc5c4OCO5)ncnc3c2)CC1    high band
CC1(C)OC(=O)C=C[C@]2(C)[C@H]3CC[C@@]4(C)[C@H](c5ccoc5)OC(=O)[C@H]5O[C@]54[C@]3(C)C(=O)C[C@@H]12    low band
CCN(CC)CCCCNc1ncc2cc(-c3cc(OC)cc(OC)c3)c(NC(=O)NC(C)(C)C)nc2n1    middle band

Q: Class? Entry: Cc1ncc(-c2ccnc(Nc3ccc(S(C)(=O)=O)cc3)n2)n1C(C)C
A: high band

Q: Class? Entry: NC(=O)c1ccc(N(C(N)=O)c2c(F)cccc2F)nc1-c1ccc(F)cc1F
A: low band

Q: Class? Entry: O=c1ccc2ccc(O)c(O)c2o1
A: low band

Q: Class? Entry: O=C(Nc1cccc(C(F)(F)F)c1)c1cccc2cc(Oc3cc(CO)ncn3)ccc12
A: low band

Q: Class? Entry: Cn1cc(-c2ccc3nnc(Sc4ccc5ncccc5c4)n3n2)cn1
A: middle band

Q: Class? Entry: COc1cc(Nc2ncc3c(n2)-c2ccc(Cl)cc2C(c2c(F)cccc2OC)=NC3)ccc1C(=O)O
A: low band

----------
# Tested on: LOC_OS01G14860-cb001
# EXPERIMENT: thermal shift delta Tm vs DMSO control; higher = stronger stabilization (binding)
# STATED_CONDITIONS: 12.5 µM; protein concentration 2 µM
We'd kindly ask you to apply these thermal shift delta Tm classes: class 0 = under 0.3 °C, class 1 = from 0.3 °C up to 4 °C, class 2 = 4 °C and over

Example cases with answers are listed next.
CC1=C(C(=O)Nc2cc3cn[nH]c3cc2F)C(c2ccc(C(F)(F)F)cc2)CC(=O)N1 (stereo not drawn)    class 0
C=CC(=O)N1CCC[C@@H](n2nc(-c3ccc(Oc4ccccc4)cc3)c3c(N)ncnc32)C1    class 0
Cc1c(C(=O)N2CCOc3ccc(-c4ccc(N)nc4)cc3C2)ccc(S(C)(=O)=O)c1F    class 0
C1=N/C2=N/c3ccc(OCCN4CCCC4)c(c3)COC/C=C/COCc3cccc(c3)C(=C1)N2 [Pacritinib (SB1518)]    class 2
O=C(NOC[C@H](O)CO)c1ccc(F)c(F)c1Nc1ccc(I)cc1F    class 1

Q: Class? Entry: CN1CCN(CCOc2cc(OC3CCOCC3)c3c(Nc4c(Cl)ccc5c4OCO5)ncnc3c2)CC1
A: class 0

Q: Class? Entry: Cc1cc(Nc2nc(N[C@@H](C)c3ccc(F)cc3)c(C#N)cc2F)n[nH]1
A: class 2

Q: Class? Entry: Cc1cc(Nc2ncc(Cl)c(Nc3ccccc3S(=O)(=O)C(C)C)n2)c(OC(C)C)cc1C1CCNCC1
A: class 1

Q: Class? Entry: CNCc1ccc(-c2cc(-c3nc(-c4ccc(S(=O)(=O)C(C)C)cc4)cnc3N)on2)cc1
A: class 2

Q: Class? Entry: CCN1CCN(Cc2ccc(C(=O)Nc3ccc(C)c(Oc4ccc5c(c4)CC(=O)N5)c3)cc2C(F)(F)F)CC1
A: class 1

----------
Here, each record is paired with measured thermal shift delta Tm data.
# Test system: LOC_OS02G17970-cb001
# EXPERIMENT: thermal shift delta Tm vs DMSO control; higher = stronger stabilization (binding)
# STATED_CONDITIONS: 12.5 µM; protein concentration 2 µM
Give just the numeric value; °C need not be written.

O=C(Nc1cccc(C(F)(F)F)c1)c1cccc2cc(Oc3cc(CO)ncn3)ccc12    1.28
Cc1cc(F)c(Nc2ncnc3cc(OCc4ccccc4)ccc23)cc1O    1.59
C=CC(=O)N[C@H]1CCOC[C@H]1Nc1ncc2cc(-c3c(Cl)c(OC)cc(OC)c3Cl)ccc2n1    -0.41
CNCc1ccc(-c2cc(-c3nc(-c4ccc(S(=O)(=O)C(C)C)cc4)cnc3N)on2)cc1    1.43
CCN(C)S(=O)(=O)Nc1ccc(F)c(C(=O)c2c[nH]c3ncc(-c4cnc(C5CC5)nc4)cc23)c1F    0.71

Q: Form field: reported thermal shift delta Tm of CCS(=O)(=O)Nc1ccc2c(c1)/C(=C(/Nc1ccc(CN3CCCCC3)cc1)c1ccccc1)C(=O)N2 [Hesperadin]
A: 0.3

Q: Form field: reported thermal shift delta Tm of C[C@@H](Oc1ccc2[nH]nc(/C=C/c3cnn(CCO)c3)c2c1)c1c(Cl)cncc1Cl
A: -0.09

Q: Form field: reported thermal shift delta Tm of CN1CCC(Nc2nc(Nc3ccc(Oc4ccccc4)cc3)c3c(=O)[nH]cc(Br)c3n2)CC1
A: 0.52

Q: Form field: reported thermal shift delta Tm of NC[C@@](O)(c1ccc(Cl)cc1)c1ccc(-c2cn[nH]c2)cc1
A: 0.63

Q: Form field: reported thermal shift delta Tm of C=CC(=O)N1CCN(CCCn2c(=O)c(-c3c(Cl)c(OC)cc(OC)c3Cl)cc3cnc(NC)nc32)CC1
A: -0.31

Q: Form field: reported thermal shift delta Tm of Cn1cc(-c2ccc3c(c2)CCN3C(=O)Cc2cccc(C(F)(F)F)c2)c2c(N)ncnc21
A: 0.57

Q: Form field: reported thermal shift delta Tm of Cn1cc(-c2ccc3ncc(Cc4ccc5ncccc5c4)n3n2)cn1
A: 0.32
